// reported IC50 for each item listed
- STUDY TARGET: hERG (Homo sapiens, UniProt Q12809)
- Construct: stably transfected with full length hERG cDNA
- Sequence (Q12809 whole entry): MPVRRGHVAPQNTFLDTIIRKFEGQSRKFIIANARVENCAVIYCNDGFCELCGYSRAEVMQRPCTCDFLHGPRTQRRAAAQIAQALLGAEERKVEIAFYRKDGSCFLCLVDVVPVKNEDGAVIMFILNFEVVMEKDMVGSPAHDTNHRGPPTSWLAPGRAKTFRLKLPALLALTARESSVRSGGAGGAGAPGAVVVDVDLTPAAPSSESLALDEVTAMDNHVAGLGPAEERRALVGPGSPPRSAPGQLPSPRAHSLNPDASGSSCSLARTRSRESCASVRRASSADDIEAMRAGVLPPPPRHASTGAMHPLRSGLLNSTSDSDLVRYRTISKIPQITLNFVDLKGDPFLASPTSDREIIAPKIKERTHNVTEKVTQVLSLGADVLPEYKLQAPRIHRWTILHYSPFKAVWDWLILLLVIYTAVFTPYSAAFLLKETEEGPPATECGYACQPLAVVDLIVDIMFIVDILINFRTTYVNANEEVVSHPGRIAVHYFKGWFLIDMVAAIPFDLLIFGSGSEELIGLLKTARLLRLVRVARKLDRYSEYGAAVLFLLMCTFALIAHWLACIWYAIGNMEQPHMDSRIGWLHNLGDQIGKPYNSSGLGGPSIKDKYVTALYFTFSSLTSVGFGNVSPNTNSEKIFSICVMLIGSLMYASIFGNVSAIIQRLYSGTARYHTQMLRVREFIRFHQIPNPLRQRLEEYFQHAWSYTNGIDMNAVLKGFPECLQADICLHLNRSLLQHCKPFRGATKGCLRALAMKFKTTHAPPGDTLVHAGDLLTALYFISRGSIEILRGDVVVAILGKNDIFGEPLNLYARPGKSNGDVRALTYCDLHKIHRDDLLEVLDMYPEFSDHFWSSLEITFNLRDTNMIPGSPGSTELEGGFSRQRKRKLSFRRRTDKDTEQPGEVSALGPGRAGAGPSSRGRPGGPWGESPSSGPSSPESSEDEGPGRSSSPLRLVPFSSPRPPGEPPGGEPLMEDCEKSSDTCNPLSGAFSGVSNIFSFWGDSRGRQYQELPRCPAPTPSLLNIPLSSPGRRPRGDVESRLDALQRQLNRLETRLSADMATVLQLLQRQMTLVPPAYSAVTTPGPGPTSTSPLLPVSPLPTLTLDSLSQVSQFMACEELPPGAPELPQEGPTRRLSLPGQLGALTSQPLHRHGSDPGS
- ASSAY OVERVIEW: hERG in-vitro assay, IonWorks Barracuda population patch clamp
- DETAILS: hERG/HEK293 cells; hERG current block, 5 minutes exposure
Please state the figure in nM; there is no need to write the unit.

Look up and state reported IC50 for O=C(c1ccc(-c2ccccc2)cc1)N1CCC(c2ncc[nH]2)CC1 [CA-3, reference compound]
611

Tell me measured IC50 for O=C(c1ccc(-c2ccccc2F)cc1)N1CCC(c2ncc[nH]2)CC1 [CA-7, reference compound] please.
1100

Hello, please tell me recorded IC50 for this one: O=C(c1ccc(-c2ccc(C(F)(F)F)cc2)cc1)N1CCC(Cc2ncc[nH]2)CC1
4840

Proceeding to the next compound to report its IC50.
// Input: O=C(c1ccc(-c2ccccc2)nc1)N1CCC(c2ncc[nH]2)CC1 . Output its IC50 only.
3280

###

Some molecules, each annotated with its measured IC50.
- STUDY TARGET: hERG (Homo sapiens, UniProt Q12809)
- Construct: stably transfected with full length hERG cDNA
- ASSAY OVERVIEW: hERG in-vitro assay, IonWorks Barracuda population patch clamp
- DETAILS: hERG/HEK293 cells; hERG current block, 5 minutes exposure

# return recorded IC50 for entry Cc1cnc(C2CCN(C(=O)c3ccc4c(-c5ccccc5)c[nH]c4c3)CC2)[nH]1
19.6 µM

For the molecule O=C(c1ccc(-c2ccc(F)cc2)cc1)N1CCC(c2ncc[nH]2)CC1 [CA-4, reference compound] , give its reported IC50.
< 0.03 µM

For the molecule CS(=O)(=O)c1cccc(-c2ccc(C(=O)N3CCC(c4ncc[nH]4)CC3)cc2)c1 , give its reported IC50.
72.3 µM

Let's switch to this molecule now.
Return value of IC50 for input O=C(c1ccc(-c2n[nH]c3ccccc23)cc1)N1CCC(c2ncc[nH]2)CC1 , no commentary.
33.6 µM

###

- STUDY TARGET: canine 5-HT2B receptor (Canis lupus familiaris)
- Sequence (Q50DZ8 1-434): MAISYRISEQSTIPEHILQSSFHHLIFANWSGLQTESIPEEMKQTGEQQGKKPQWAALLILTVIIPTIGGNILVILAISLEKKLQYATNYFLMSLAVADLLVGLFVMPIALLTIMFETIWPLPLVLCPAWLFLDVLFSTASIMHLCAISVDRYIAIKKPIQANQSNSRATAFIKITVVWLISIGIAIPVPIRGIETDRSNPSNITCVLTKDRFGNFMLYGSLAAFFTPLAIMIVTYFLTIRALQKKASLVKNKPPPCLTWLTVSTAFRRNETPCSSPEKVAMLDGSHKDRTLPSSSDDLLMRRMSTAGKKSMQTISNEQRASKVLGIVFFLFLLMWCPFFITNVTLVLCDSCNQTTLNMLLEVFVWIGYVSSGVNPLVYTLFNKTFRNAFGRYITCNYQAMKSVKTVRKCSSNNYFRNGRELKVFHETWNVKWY
- ASSAY OVERVIEW: Canine 5-HT2B (c5-HT2B) in-vitro assay, FLIPR calcium response
- DETAILS: CHO-K1 cells stably expressing canine 5-HT2B receptor; inhibition of EC80 serotonin calcium response
Measured log10(IC50) accompanies every entry in the list below.
Please interpret these as log10 of IC50 where IC50 is in nM.

Quote log10(IC50) reported for Cc1c[nH]c(C2CCN(C(=O)c3ccc(-c4c(C)[nH]c5ccccc45)cc3)CC2)n1 [Example 26] please.
-0.08

Next:
For the compound O=C(c1ccc2c(-c3ccccc3)c[nH]c2c1)N1CCC(c2ncc[nH]2)CC1 [Example 32] , give its reported log10(IC50).
0.86

State its log10(IC50) for this compound: Cc1cnc(C2CCN(C(=O)c3ccc(-c4n[nH]c5ccccc45)cc3)CC2)[nH]1 [Example 6]
-0.19

Determine from records and report log10(IC50) for O=C(c1ccc(-c2ccc(C(F)(F)F)cc2)cc1)N1CCC(c2ncc[nH]2)CC1 [Example 3]
0.71

Fill in log10(IC50) for record O=C(c1ccc(-c2ccccc2)nc1)N1CCC(c2ncc[nH]2)CC1 [Example 11]
0.65

# return recorded log10(IC50) for input O=C(c1ccc(-c2ccc(F)cc2)cc1)N1CCC(Nc2ncc[nH]2)CC1 [Example 1]
0.30

Return log10(IC50) (reported value) for this compound: O=C(c1ccc(-c2cc3ccccc3[nH]2)cc1)N1CCC(c2ncc[nH]2)CC1 [Example 30]
0.29

Output log10(IC50) of Cc1c[nH]c(C2CCN(C(=O)c3ccc(-c4ccc(F)cc4)cc3)CC2)n1 [CA-6, reference compound]
0.86

Fill in reported log10(IC50) for this entry: O=C(c1ccc2c(ccn2-c2ccccc2)c1)N1CCC(c2ncc[nH]2)CC1 [Example 21]
0.49

Could you please provide reported log10(IC50) for Cc1cnc(C2CCN(C(=O)c3ccc4c(-c5ccccc5)c[nH]c4c3)CC2)[nH]1 [Example 31] ? Thanks!
0.65

Consider the compound O=C(c1ccc(-c2ccc(F)cc2)cc1)N1CCC(c2ncc[nH]2)CC1 [CA-4, reference compound] . State its measured log10(IC50).
-1.10

Retrieve log10(IC50) measured for O=C(c1ccc(-c2ccccc2)cc1)N1CCC(c2ncc[nH]2)CC1 [CA-3, reference compound] and print it.
-0.19

Tell us which log10(IC50) value is on record for N#Cc1ccc(-c2ccc(C(=O)N3CCC(c4ncc[nH]4)CC3)cc2)cc1 [CA-5, reference compound]
2.66

For the compound O=C(c1ccc(-n2ccc3ccccc32)cc1)N1CCC(c2ncc[nH]2)CC1 [Example 18] , give its measured log10(IC50) value.
-2.00

Could you please provide reported log10(IC50) for O=C(c1ccc(-c2ccc(F)cc2)cc1)N1CCC(Cc2ncc[nH]2)CC1 [CA-1, reference compound] ? Thanks!
-0.52

Respond only with log10(IC50) recorded for O=C(c1ccc(-c2ccc3c(c2)OCO3)cc1)N1CCC(c2ncc[nH]2)CC1 [Example 13]
0.15

Return log10(IC50) (reported value) for this compound: O=C(c1ccc(-c2ccc(C(F)(F)F)cc2)cc1)N1CCC(Cc2ncc[nH]2)CC1 [Example 12]
1.81

// fetch log10(IC50) given entry O=C(c1ccc(-c2ccc(C(F)(F)F)cc2)cc1)N1CCC(Nc2ncc[nH]2)CC1 [Example 7]
1.48

Item O=C(c1ccc(-c2ccc(C(F)F)cc2)cc1)N1CCC(Cc2ncc[nH]2)CC1 [Example 25] : provide log10(IC50)
-0.34

Using known records, supply log10(IC50) for O=C(c1ccc2c(-c3cccc4[nH]ccc34)c[nH]c2c1)N1CCC(c2ncc[nH]2)CC1 [Example 28]
0.08

Item O=C(c1ccc(-c2cccc(C(F)(F)F)c2)cc1)N1CCC(c2ncc[nH]2)CC1 [Example 19] : provide log10(IC50)
-0.05

Annotate the compound CS(=O)(=O)c1cccc(-c2ccc(C(=O)N3CCC(c4ncc[nH]4)CC3)cc2)c1 [Example 2] with its measured log10(IC50).
1.72

Please supply the value of reported log10(IC50) for the item O=C(c1ccc(-c2c[nH]c3ccccc23)cc1)N1CCC(c2ncc[nH]2)CC1 [Example 23]
-1.70

###

Here the recorded pIC50 is given for each entry.
- STUDY TARGET: hERG (Homo sapiens)
- Construct: stably transfected with full length hERG cDNA
- ASSAY OVERVIEW: hERG in-vitro assay, IonWorks Barracuda population patch clamp
- DETAILS: hERG/HEK293 cells; hERG current block, 5 minutes exposure
On this scale, pIC50 is minus log10 of a concentration expressed in M (mol/L).

# return recorded pIC50 for input O=C(c1ccc2c(c1)[nH]c1ccccc12)N1CCC(c2ncc[nH]2)CC1
5.24

For the next question, use this compound.
// Input: Cc1c[nH]c(C2CCN(C(=O)c3ccc(-c4c(C)[nH]c5ccccc45)cc3)CC2)n1 . Output its pIC50 only.
4.88

###

- STUDY TARGET: UniProt:Q50DZ8
- ASSAY OVERVIEW: Canine 5-HT2B (c5-HT2B) in-vitro assay, FLIPR calcium response
- DETAILS: CHO-K1 cells stably expressing canine 5-HT2B receptor; inhibition of EC80 serotonin calcium response
Below is a list of entries, each paired with its recorded IC50 value.
Record the value in nM, omitting the unit from your answer.

Please supply the value of reported IC50 for the item O=C(c1ccc(-c2cccc3c2OCO3)cc1)N1CCC(c2ncc[nH]2)CC1 [Example 20]
0.01

Give reported IC50 value for O=C(c1ccc2c(-c3c[nH]c4ccccc34)c[nH]c2c1)N1CCC(c2ncc[nH]2)CC1 [Example 29]
1.4

# return recorded IC50 for input O=C(c1ccc(-c2ccccc2F)cc1)N1CCC(c2ncc[nH]2)CC1 [CA-7, reference compound]
0.09

Tell me its IC50 given Cc1cnc(C2CCN(C(=O)c3ccc(-c4ccc(C(F)(F)F)cc4)cc3)CC2)[nH]1 [Example 4] as the entry.
21.9

Given the compound O=C(c1ccc(-c2ccc(C(F)F)cc2)cc1)N1CCC(c2ncc[nH]2)CC1 [Example 16] , write its reported IC50.
0.31

Quick one: give measured IC50 for O=C(c1ccc(-c2ccc(C(F)F)cc2)cc1)N1CCC(Nc2ncc[nH]2)CC1 [Example 33]
18.6

Look up and state reported IC50 for O=C(c1ccc(-c2cccc(Cl)c2)cc1)N1CCC(c2ncc[nH]2)CC1 [Example 10]
0.51

###

- STUDY TARGET: hERG (Homo sapiens, UniProt Q12809)
- Construct: stably transfected with full length hERG cDNA
- ASSAY OVERVIEW: hERG in-vitro assay, IonWorks Barracuda population patch clamp
- DETAILS: hERG/HEK293 cells; hERG current block, 5 minutes exposure
QUANTITY NAME: IC50 (nM)
Field: numeric (nM). Do not append units.

Worked cases, answers included:
Complete the entry with IC50 for O=C(c1ccc2c(-c3ccccc3)c[nH]c2c1)N1CCC(c2ncc[nH]2)CC1 [Example 32]
15200

Using the record for O=C(c1ccc(-c2ccc(F)cc2)cc1)N1CCC(Nc2ncc[nH]2)CC1 [Example 1] , state its measured IC50.
1540

Quick one: give measured IC50 for O=C(c1ccc(-c2ccc(C(F)F)cc2)cc1)N1CCC(Cc2ncc[nH]2)CC1 [Example 25]
3400

Now examine the next entry.
For O=C(c1ccc(-c2ccc(F)cc2)cc1)N1CCC(Cc2ncc[nH]2)CC1 [CA-1, reference compound] , write its IC50.
546
